Test system: ROR1 or ROR2
Test summary: ROR2 cross-reactivity ELISA (ROR1/ROR2 signal ratio)
Assay type: binding
Experimental conditions: Table 11; SP34 light chain
Let's look at some molecules and their measured ROR1/ROR2 ELISA ratio.
Quantity kind: ROR1/ROR2 ELISA ratio

SRP2196-B03 (antibody, V domains shown) VH: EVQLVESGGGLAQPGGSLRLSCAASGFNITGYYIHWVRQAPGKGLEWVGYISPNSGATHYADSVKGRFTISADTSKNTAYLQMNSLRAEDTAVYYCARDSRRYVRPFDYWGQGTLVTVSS VL: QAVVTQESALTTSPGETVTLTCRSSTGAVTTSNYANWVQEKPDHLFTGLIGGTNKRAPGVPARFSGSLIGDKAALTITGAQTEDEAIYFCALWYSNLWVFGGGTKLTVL    22.8
SRP2196-B11 (antibody, V domains shown) VH: EVQLVESGGGLVQPGGSLRLSCAASGFNITGYYIHWVRQAPGRGLEWVGQISPNSGYTYYADSVKGRFTISADTSKNTAYLQMNSLRAEDTAVYYCARDSRRYIRSWDYWGQGTLVTVSS VL: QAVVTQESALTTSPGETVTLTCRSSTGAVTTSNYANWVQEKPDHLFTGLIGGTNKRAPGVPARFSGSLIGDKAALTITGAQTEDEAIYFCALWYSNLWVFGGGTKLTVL    19.1
SRP2196-B09 (antibody, V domains shown) VH: EVQLVESGGGLVQPEGSLRLSCAASGFNITEYYIHWVRQAPGKGLEWVGYISPNSGSTYYADSVKGRFTISADTSKNTAYLQMNSLRAEDTAVYYCARDSRRYVRSWDYWGQGTLVTVSS VL: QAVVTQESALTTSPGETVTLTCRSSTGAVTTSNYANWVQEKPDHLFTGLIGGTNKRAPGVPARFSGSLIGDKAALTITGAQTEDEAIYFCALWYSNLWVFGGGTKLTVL    27.3
